Cited source for all entries: patent US20240084003A1

target_desc: T1, monkey CD22 protein (ACROBiosystems, catalog number SI2-R52Ha) (monkey, UniProt F6W485 20-688)
T1 construct: commercial protein; also called monkey CD22-ECD; monkey CD22-ECD-His
T1 sequence: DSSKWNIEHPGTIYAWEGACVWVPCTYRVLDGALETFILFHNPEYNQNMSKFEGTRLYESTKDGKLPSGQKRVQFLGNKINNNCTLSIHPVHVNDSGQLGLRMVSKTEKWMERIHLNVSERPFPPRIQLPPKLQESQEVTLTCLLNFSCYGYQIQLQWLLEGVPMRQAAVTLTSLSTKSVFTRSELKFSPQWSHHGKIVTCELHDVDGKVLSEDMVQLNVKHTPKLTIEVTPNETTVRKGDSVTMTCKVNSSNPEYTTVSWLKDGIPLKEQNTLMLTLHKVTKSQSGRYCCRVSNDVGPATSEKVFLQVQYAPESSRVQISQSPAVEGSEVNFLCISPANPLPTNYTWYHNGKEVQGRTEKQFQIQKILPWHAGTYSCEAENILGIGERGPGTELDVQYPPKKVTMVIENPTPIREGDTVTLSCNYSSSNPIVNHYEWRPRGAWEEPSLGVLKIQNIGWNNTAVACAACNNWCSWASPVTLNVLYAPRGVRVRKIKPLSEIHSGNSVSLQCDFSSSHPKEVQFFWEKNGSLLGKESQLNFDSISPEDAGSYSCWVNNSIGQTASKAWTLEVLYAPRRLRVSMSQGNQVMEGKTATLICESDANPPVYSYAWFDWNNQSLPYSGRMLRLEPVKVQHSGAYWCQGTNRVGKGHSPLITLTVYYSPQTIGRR
method_description: ELISA, coated monkey CD22 protein, antibody 0.01 nM
Listed here: items and their measured OD450.
Give just the number in OD450; leave the unit off.

Answered examples (2):
[
  {
    "binder": "F2.121.9 (antibody, human IgG1, lambda, V domains shown, human-murine chimeric IgG1 lambda) VH: EVQLVESGGGLVKPGGSLKLSCAASGFTFSDYVMSWIRQTPEKRLEWVATISDAGSYTFYPDNLKGRFTISRDNAKNNLYLQMNHLTSEDTAFYYCAIIYFGNYGGYWGQGTLVTVSV VL: QAVVTQESALTTSPGGTVVLTCRSNTGAVTTSNYANWVQEKPDHLFTGLIGGTSNRAPGVPVRFSGSLIGDKAALTITGAQTEDDAMYFCALWYSTHWVFGGGTKLTVLG",
    "OD450, OD450": 0.13
  },
  {
    "binder": "F1.62.10 (antibody, human IgG1, kappa, V domains shown, human-murine chimeric IgG1 kappa) VH: QVQLQQSGPELVKPGASVKISCKASGYEFSSIWMNWVKQRPGEGLEWIGRIFPGDGEINYNEKFKGKATLTADRSSTTAYMQLSSLTSEDSAVYFCAGWRIYYGTYGAMDYWGQGTSVTVSS VL: DIQMTQITSSLSASLGDRVTISCRASQDIGNYLNWYQQKPDGTVKLLIYYTSRLHSGVPSRFSGSGSRTDYSLTISNLQQEDIATYFCQQGNTLPWTFGGGTKLEIKR",
    "OD450, OD450": 0.05
  }
]

Which OD450 is listed for F2.180.16 (antibody, human IgG1, lambda, V domains shown, human-murine chimeric IgG1 lambda) VH: EVKLVESGGGLVLPGGSLKISCAASGFTFSDYYMYWIRQTPDKRLEWVAYISNTGYSTFYPDSVKGRFTVSRDNAKNTLYLQMSRLQSEDTAMYYCARHGILYAMDYWGQGTSVTVSS VL: QPVLTQSSSASFSLGASAKLTCTLSSQYSTYTIGWYQQQPLKPPKYVMELKHDGSRHTGDGIPDRFSGSSSGADRYLSISNIQPEDEATYICGVGDTIKEQFMYVFGGGTKVTVLG ?
0.05
